Assay Target: GABA-A receptor; alpha-1/beta-2/gamma-2 (Homo sapiens) (UniProt P14867+P47870+P18507)
Assay Name: In vitro GABA-mediated chloride current in A293 cells expressing GABA-A benzodiazepine receptor alpha-1-beta-2-gamma-2 subunits at 5 uM
Format: functional, cell-based
Measurement Conditions: HEK293
Recorded Change in Cl- current values for a group of compounds are listed next.
Reported Metric: Change in Cl- current

chemical_smiles=Cc1ccc2c(c1)N(C(=O)N1C[C@@H](C)N[C@H](C)C1)Cc1c(C(=O)OC(C)(C)C)ncn1-2 observed_value=0.7
chemical_smiles=CCCC(=O)O.CCN1[C@H](C)CN(C(=O)N2Cc3c(C(=O)OC(C)(C)C)ncn3-c3ccc(Cl)cc32)C[C@@H]1C observed_value=0.94
chemical_smiles=CC(C)N1[C@H](C)CN(C(=O)N2Cc3c(C(=O)OC(C)(C)C)ncn3-c3ccc(Cl)cc32)C[C@@H]1C observed_value=0.9
chemical_smiles=C[C@@H]1CN(C(=O)N2Cc3c(C(=O)OC(C)(C)C)ncn3-c3ccc(Cl)cc32)C[C@@H](C)N1 observed_value=0.5
chemical_smiles=Cc1ccc2c(c1)N(C(=O)N1C[C@@H](C)N[C@@H](C)C1)Cc1c(C(=O)OC(C)(C)C)ncn1-2 observed_value=0.84
chemical_smiles=CC(C)(C)OC(=O)c1ncn2c1CN(C(=O)N1CC3CCC(C1)N3)c1cc(Cl)ccc1-2 observed_value=0.73
chemical_smiles=C[C@@H]1CN(C(=O)N2Cc3c(C(=O)OC(C)(C)C)ncn3-c3ccc(Cl)cc32)C[C@H](C)N1C observed_value=1
